- Tested on: IGROV1 ovarian
- assay.name: NCI tumour cell line growth inhibition, 48 h
readout.label: TGI

Problem: Value lookup for TGI; key = `O=C(NCCCN(CCCCN(CCCNC(=O)c1cc(S(=O)(=O)O)cc(O)c1O)C(=O)c1cc(S(=O)(=O)O)cc(O)c1O)C(=O)c1cc(S(=O)(=O)O)cc(O)c1O)c1cc(S(=O)(=O)O)cc(O)c1O`
Solution: > 100 µM

Problem: Next record, please: NC(CCCCNCc1ccccc1)C(=O)O (stereo not drawn)
Solution: > 100 µM

Problem: Proceed to CN1C(=O)C2(c3ccccc31)C1CC3C(CO1)C1C2C3(CO)CN1C#N (stereo not drawn)
Solution: > 100 µM

Problem: Another compound to look at: `O=C1C(c2ccccc2)=C(c2ccccc2)C(c2ccc(Sc3ccc(C4=C(c5ccccc5)C(=O)C(c5ccccc5)=C4c4ccccc4)cc3)cc2)=C1c1ccccc1`
Solution: > 100 µM

Problem: Try Cc1cn(C2CCN(CC3COC(C)(C)O3)O2)c(=O)[nH]c1=O (stereo not drawn) next.
Solution: > 100 µM

Problem: Same read-out for `O=S(=O)(NCCCNc1cc(-c2cn(-c3ccccc3)nc2-c2cccc(O)c2)ccn1)c1ccc(Br)cc1` ?
Solution: 29 µM

Problem: Also, `C=C1C(=O)O[C@H]2[C@H]1CC/C(CNC(=O)/C=C/c1ccccc1F)=C\CC[C@@]1(C)O[C@@H]21` please.
Solution: 4.65 µM

Problem: # iterate: `Cc1ccc(OCCOCCOCCOCCOCCOc2ccc(C)n(O)c2=S)c(=S)n1O`
Solution: > 72.5 µM

###

- Test system: DMS 273 small cell lung
- assay.name: NCI tumour cell line growth inhibition, 48 h
I'd be grateful if you could share measured TGI for these entries.

Problem: Sample O=C(NC(Cc1ccc(Cl)cc1)C(=O)O)c1ccc(I)cc1 (stereo unspecified) — what was its TGI?
Solution: > 100 µM

Problem: Queued: `CC(C)OP(=O)(OC(C)C)C(=NCCN=C(NNc1ccccc1[N+](=O)[O-])P(=O)(OC(C)C)OC(C)C)NNc1ccccc1[N+](=O)[O-]`
Solution: > 100 µM

Problem: What do you have for Cc1ccc(C2=Nc3ccccc3S(=O)C(c3ccc4c(c3)OCO4)C2)cc1 (stereo unspecified) ?
Solution: > 100 µM

Problem: Try this molecule too: CC(=O)NC1COC(COC(=O)CCCCCCCCCCNC(=O)c2ccc([N+](=O)[O-])c3c(=O)c4ccccc4[nH]c23)C(O)C1OC(C)C(=O)NC(C(=O)NC(CCC(N)=O)C(=O)OCc1ccccc1)C(C)C (stereo unspecified)
Solution: 27.3 µM

Problem: Also `CC(C)c1ccc(/C=C/c2cc(C(=O)NNC(=O)NC3CCCCC3)nc(=S)[nH]2)cc1` ?
Solution: > 100 µM

Problem: Another molecule to look at: `CC[PH+](CC)CC.CC[PH+](CC)CC.[Au]`
Solution: 38.3 µM

Problem: Also check COC(=O)C(c1ccc(OC)cc1)N1C(=O)[C@@H](NC(=O)c2ccccc2)[C@H]1[C@@H](C)O (stereo partly specified)
Solution: > 100 µM

Problem: Next molecule up: O=C(CC1(O)C(=O)Nc2c(Cl)cc(Cl)cc21)c1ccc(F)cc1 (stereo unspecified)
Solution: > 100 µM

Problem: Also check CCCCCCCCCCCCCCCCCC(=O)OCC1OC(OC)C(NC(=O)N(CCCl)N=O)C(O)C1O (stereo unspecified)
Solution: 56.9 µM

Problem: Ok, now `Cc1ccc(S(=O)(=O)OCCOCCOCCOCCOCCOS(=O)(=O)c2ccc(C)cc2)cc1`
Solution: > 100 µM

Problem: // repeat for `O=C(O)c1c2c(cc3c(=O)cc(-c4ccccc4)oc13)CCCC2` and report
Solution: > 100 µM

###

Provide the reported GI50 of each item.
- Tested on: RXF 393 renal
- assay.name: NCI tumour cell line growth inhibition, 48 h

Problem: Entry `C=CC(=O)Nc1cccc(Oc2nc(Nc3ccc(N4CCN(C)CC4)cc3OC)ncc2Cl)c1` : reported GI50 = ?
Solution: 1.49 µM

Problem: Thanks! And `COC(=O)c1oc2c(C(=O)/C=C/c3ccc(OC)cc3)c(OCCN3CCOCC3)ccc2c1C` ?
Solution: 0.0487 µM

Problem: Follow-up entry: [Cu+2].[NH-]C(CC(=O)O)C(=O)O.[NH-]C(CC(=O)O)C(=O)O (stereo unspecified)
Solution: > 100 µM

Problem: One more compound: `CCCN(CCC)c1ccc(C=O)c(C)c1`
Solution: 34.3 µM

Problem: Same read-out for `CC(=O)OCCCC#CC#Cc1cccc(=O)o1` ?
Solution: 24.3 µM

Problem: And what about the compound `C=C1c2nc3ccccc3n2C=C(c2ccc(Cl)cc2)N1c1ccc(OCCN2CCCCC2)cc1` ?
Solution: > 100 µM

Problem: Now the same for `CC/C=C\C[C@H](O)C/C=C1/C(=O)C=C[C@@H]1C/C=C\CCCCO`
Solution: 2.25 µM

Problem: Consider next the compound `O=C1NC(=NCCc2ccccn2)S/C1=C\c1ccc2ncccc2c1` in the same way.
Solution: 8.97 µM

Problem: Proceed to `NC(N)=Nc1ccc(/C=C2\C=Cc3ccccc32)cc1`
Solution: 2.14 µM

Problem: Again, but for `CN(C)CCOc1ccccc1NC1=C(Cl)C(=O)C(Nc2ccccc2OCCN(C)C)=C(Cl)C1=O`
Solution: 3.93 µM

Problem: Then `CCCCCCCCCCCCCCCCN(CC)CC` ?
Solution: 1.88 µM

###

- System: NCI-H23 lung
- assay.name: NCI tumour cell line growth inhibition, 48 h
readout.label: TGI (µM)
Kindly answer with a numeric value in µM, unit omitted.

Problem: Quick one: TGI for `Cn1c(-c2c(N)n(Cc3ccc(F)cc3)c3nc(C#N)c(C#N)nc23)nc2ccccc21` ?
Solution: 4.08

Problem: Next molecule: `Cc1ccc(Sc2ccccc2N)cc1`
Solution: 93.3

###

- System: NCI-H460 lung
- assay.name: NCI tumour cell line growth inhibition, 48 h
Assign TGI to each entry below.
Quick reminder: number only, in µM, skip the unit.

Problem: Which value of TGI has been reported for `CCNc1nnc(-c2ccccc2Nc2ccccc2-c2nnc(NCC)s2)s1` in the records?
Solution: 31.3

Problem: Proceed to `COc1ccc(OC)c(/C=C/c2ccnc3ccccc23)c1`
Solution: 12.3

Problem: Follow-up item: `CN(C)c1ccccc1[CH2][Ga]([Cl])[CH2]c1ccccc1N(C)C`
Solution: 3.58

Problem: Also `Cn1c(-c2c(N)n(Cc3ccc(F)cc3)c3nc(C#N)c(C#N)nc23)nc2ccccc21` ?
Solution: 25.2

###

Would you kindly list GI50 for each of these molecules?
- Test system: SR leukemia
- assay.name: NCI tumour cell line growth inhibition, 48 h

Problem: Param readout = GI50; param system = SR leukemia; param query = `COc1cc(CCC(=O)NC[C@@H](O)c2ccccc2)ccc1O` ; response: value
Solution: 61.6 µM

Problem: Same again, this time with `CCCCCCCCCCCCCCCCN(CC)CC`
Solution: 1.99 µM

Problem: What about this molecule? Cc1ccsc1-c1ccc2c(c1)COC2(CCCN(C)C)c1ccc(F)cc1 (stereo not given)
Solution: 2.29 µM

Problem: Also `Nc1ncn([C@H]2C[C@H](OP(=O)(O)OC[C@H]3O[C@@H](n4cnc5c(=O)[nH]c(N)nc54)C[C@@H]3O)[C@@H](CO)O2)c(=O)n1` ?
Solution: > 100 µM

Problem: Now this one: `COc1cc(/C=C/C(=O)c2c(-c3ccc(F)cc3)nc3sc(C)nn23)cc(OC)c1OC`
Solution: 1.77 µM

###

Assignment: determine reported TGI for the given compounds.
- System: 786-0 renal
- assay.name: NCI tumour cell line growth inhibition, 48 h

Problem: I'd like to know its TGI. The compound in question is NC(CCCCNCc1ccccc1)C(=O)O (stereo not given)
Solution: > 100 µM

Problem: Next compound: `CCOC(=O)c1sc2nc1CSc1sc(=S)sc1SCc1nc(sc1C(=O)OCC)-c1nc(c(C(=O)OCC)s1)CSc1sc(=S)sc1SCc1nc-2sc1C(=O)OCC`
Solution: > 10 µM

Problem: And `COC(=O)c1ccc2c(c1)sc1nc(-c3ccc(OC)cc3)cn12` ?
Solution: > 100 µM

Problem: Also, `CN(C)c1ccc(/C=C(\NC(=O)c2ccccc2)C(=O)Nc2cccc(C(=O)NCCCO)c2)cc1` please.
Solution: > 100 µM

Problem: Next compound up: `CCOC(=O)N/N=C(\CC)OCC`
Solution: > 100 µM

Problem: Same question, CCC12C=CCN3CCC4(c5cc(C(c6ccc(OC)cc6)C6Cc7ccccc7N6)c(OC)cc5N(C)C4C(O)(C(=O)OC)C1O)C32 (stereo not given) this time
Solution: > 100 µM

Problem: Same question, `CCOC(=O)C1(N)CC1` this time
Solution: > 100 µM

Problem: Then `O=C(O)c1cn(C2CC2)c2cc(N3CCN(Cc4c(O)ccc5ccccc45)CC3)c(F)cc2c1=O` ?
Solution: 7.05 µM

Problem: Moving on to the next compound: `COc1ccc2c(c1)CCCc1c-2nc2ccccc2c1N`
Solution: 18.5 µM

Problem: Proceed to `CC(=O)N[C@@H](Cc1ccc(OP(=O)(O)O)cc1)C(=O)N[C@H]1CCC(=O)N2CCC[C@@H](C(=O)NCc3ccccc3)N2C1=O`
Solution: > 25 µM

Problem: Consider next the compound `Cc1c2c(nn1-c1ccc(S(=O)(=O)NC(=S)NC(=O)c3ccccc3)cc1)-c1ccccc1CC2` in the same way.
Solution: > 100 µM

Problem: Further, for `COc1ccc(-c2cn(-c3cc(OC)c(OC)c(OC)c3)c(=O)[nH]2)cc1OC` ?
Solution: > 100 µM

Problem: Now give it for CCOC(=O)C12CC(C)=C(C)CC1CCCc1ccccc12 (stereo not given) too.
Solution: > 100 µM

Problem: Now this one: `Cc1ccc(Sc2ccccc2N)cc1`
Solution: > 100 µM

Problem: Input `COc1ccc(/C=C/C(=O)c2sc(-c3cccnc3)nc2C)cc1`
Solution: > 100 µM

Problem: Continue with `CC(=Nc1ccc(Cl)c(Cl)c1)c1ccncc1`
Solution: > 100 µM

Problem: // query: `O=C(O)c1c2c(cc3c(=O)cc(-c4ccccc4)oc13)CCCC2`
Solution: > 100 µM

Problem: Another compound: CC1(C)CCCCCCCCCC2CC2CCC(C)(C)C1=O (stereo not given)
Solution: 31.5 µM

Problem: Also CC(=O)NC1COC(COC(=O)CCCCCCCCCCNC(=O)c2ccc([N+](=O)[O-])c3c(=O)c4ccccc4[nH]c23)C(O)C1OC(C)C(=O)NC(C(=O)NC(CCC(N)=O)C(=O)OCc1ccccc1)C(C)C (stereo not given) ?
Solution: > 58.6 µM

Problem: Queued: `O=c1[nH]c2c(c(=O)[nH]1)C(c1ccc([N+](=O)[O-])cc1)c1c([nH]c(=O)[nH]c1=O)O2`
Solution: > 100 µM

Problem: Proceed to `CS(=O)(=O)O[C@H]1[C@H](O)c2ccccc2[C@@H]1N=[N+]=[N-]`
Solution: > 100 µM

Problem: Entry COc1ccc2c(c1)C(c1cc(OC)c3c(c1)OCO3)C1=C(COC1=O)N2 (stereo not given) please
Solution: > 36 µM

Problem: Would you mind doing O=S(=O)(CCC[C@H]1[C@@H](CCOCc2ccccc2)C2CCCN1O2)c1ccccc1 (stereo not given in full) as well?
Solution: > 100 µM

Problem: For C/C=C\C(CC(=O)OC)CC(=O)N(CCC1CN(S(=O)(=O)C(F)(F)F)c2ccccc21)Cc1ccc(OC)cc1OC (stereo not given) then?
Solution: > 100 µM

Problem: Next: `CCCCCCCCCCOC(=O)NCCC`
Solution: > 100 µM

Problem: Can you handle `O=S(=O)(O)c1ccc2c(N=Nc3ccccc3)c(O)ccc2c1` next?
Solution: > 100 µM

Problem: Entry `O=C(O)CCCN=C(C1=C(O)C(=O)N(c2ccccc2)C1=O)c1ccccc1` please
Solution: > 100 µM

Problem: Now this one: `COc1cc(CCC(=O)NC[C@@H](O)c2ccccc2)ccc1O`
Solution: > 100 µM

Problem: Let us now turn to Cc1cn(C2CCN(CC3COC(C)(C)O3)O2)c(=O)[nH]c1=O (stereo not given)
Solution: > 100 µM

Problem: Entry `COc1cc2c(c(OC)c1OC)-c1c(c3ccc([N+](=O)[O-])cc3c(=O)n1CCCN)C2=O` please
Solution: 1.51 µM

Problem: Now consider `COC(=O)Cn1c(=O)oc2nc(-c3ccccc3)cc(C(F)(F)F)c21` and answer again.
Solution: > 100 µM

Problem: Try `N=C(N)c1ccc(N=Nc2c(O)ccc3cc4c(N=Nc5ccc(C(=N)N)cc5)c(O)ccc4cc23)cc1` next.
Solution: > 100 µM

Problem: Same read-out for COc1ccc(/C=C2\CCC(CCN3CCOCC3)C2=O)cc1 (stereo not given) ?
Solution: > 100 µM

Problem: Same for `COc1cc(/C=C2\N=C(c3ccccc3)N(c3nc4ccc(Sc5ccccc5)cc4[nH]3)C2=O)cc(OC)c1OC`
Solution: 42.4 µM

Problem: Moving on to the next compound: `CCCCCCCCCCCCCCCCN(CC)CC`
Solution: 3.1 µM

Problem: Same again, this time with `O=C1[C@@H](O)[C@@H]2CCCC[C@@]23CCCN13`
Solution: > 100 µM

Problem: Same read-out for CN1CC2=C(NC(=S)NC2c2ccccc2Cl)/C(=C/c2ccccc2Cl)C1 (stereo not given) ?
Solution: > 100 µM

Problem: Continue with `C=CCOC(=O)Nc1cccn([C@H](CC(C)C)C(=O)NCCC(C)C)c1=O`
Solution: > 100 µM

Problem: Try this compound too: `CN(C)c1ccccc1[CH2][Ga]([Cl])[CH2]c1ccccc1N(C)C`
Solution: 2.8 µM

Problem: Repeat with `CN(C)Cc1c(C(=O)NCCOc2ccc(C(=O)NO)cc2)oc2ccccc12`
Solution: 9.16 µM
